# Test system: HUVEC
# experiment: Migration assay with HUVEC
# Type: cell-based
# statedConditions: Homo sapiens, transwell coated with chymotryptic fibronectin fragment, 10 ng/ml bFGF chemoattractant, 3 h

molecule	IC50
Cc1ccnc(NCC2CCN(c3ccc(CC(NC(=O)c4c(C)cc(C)cc4C)C(=O)O)cc3)CC2)c1 (centres unmarked)	< 10 µM
Cc1ccnc(NCC2CC(=O)N(c3ccc(CC(NC(=O)c4c(C)cc(C)cc4C)C(=O)O)cc3)C2)c1 (centres unmarked)	< 10 µM
CCc1cc(F)cc(C)c1C(=O)NC(Cc1ccc(N2CCC(CNc3ccccn3)CC2)cc1)C(=O)O (centres unmarked)	< 10 µM
CC1(C(=O)NC(CC2CCN(C(=O)CCc3ccc4c(n3)NCCC4)CC2)C(=O)O)CCCCC1 (centres unmarked)	> 20 µM
Cc1cc(C)c(C(=O)NC(Cc2ccc(N3CCC(c4ccc5c(n4)NCCC5)CC3)cc2)C(=O)O)c(C)c1 (centres unmarked)	< 10 µM

----------
# targetUnderTest: alpha5beta1 (Homo sapiens (Human), UniProt P05556+P08648)
# Sequence (P08648 42-894): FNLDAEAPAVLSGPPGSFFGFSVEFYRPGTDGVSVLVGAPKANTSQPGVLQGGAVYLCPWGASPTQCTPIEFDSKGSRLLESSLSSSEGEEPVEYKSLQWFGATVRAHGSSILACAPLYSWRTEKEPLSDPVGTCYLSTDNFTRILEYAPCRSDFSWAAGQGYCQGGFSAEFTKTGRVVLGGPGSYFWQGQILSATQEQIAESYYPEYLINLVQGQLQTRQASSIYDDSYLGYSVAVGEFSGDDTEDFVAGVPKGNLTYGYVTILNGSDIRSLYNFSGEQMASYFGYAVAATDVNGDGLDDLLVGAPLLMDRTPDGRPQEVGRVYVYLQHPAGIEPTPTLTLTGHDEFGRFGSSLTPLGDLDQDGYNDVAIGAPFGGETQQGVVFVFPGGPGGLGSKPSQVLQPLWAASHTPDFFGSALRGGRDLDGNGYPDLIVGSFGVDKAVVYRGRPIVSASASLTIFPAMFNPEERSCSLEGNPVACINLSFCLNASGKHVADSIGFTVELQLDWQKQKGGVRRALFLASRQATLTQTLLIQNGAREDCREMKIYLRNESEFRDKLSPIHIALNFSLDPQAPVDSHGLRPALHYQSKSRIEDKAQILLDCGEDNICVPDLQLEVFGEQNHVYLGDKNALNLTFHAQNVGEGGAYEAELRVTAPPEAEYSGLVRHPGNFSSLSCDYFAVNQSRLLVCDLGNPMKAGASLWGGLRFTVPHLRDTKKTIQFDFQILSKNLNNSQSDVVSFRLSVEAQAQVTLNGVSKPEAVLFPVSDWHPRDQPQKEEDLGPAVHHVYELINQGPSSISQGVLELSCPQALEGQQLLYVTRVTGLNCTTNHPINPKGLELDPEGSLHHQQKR
# Sequence (P08648 895-1049 partner): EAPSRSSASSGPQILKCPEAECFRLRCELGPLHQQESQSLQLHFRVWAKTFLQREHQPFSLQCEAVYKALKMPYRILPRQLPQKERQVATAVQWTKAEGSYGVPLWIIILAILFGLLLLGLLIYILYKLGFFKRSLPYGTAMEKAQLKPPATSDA
# Sequence (P05556 21-798): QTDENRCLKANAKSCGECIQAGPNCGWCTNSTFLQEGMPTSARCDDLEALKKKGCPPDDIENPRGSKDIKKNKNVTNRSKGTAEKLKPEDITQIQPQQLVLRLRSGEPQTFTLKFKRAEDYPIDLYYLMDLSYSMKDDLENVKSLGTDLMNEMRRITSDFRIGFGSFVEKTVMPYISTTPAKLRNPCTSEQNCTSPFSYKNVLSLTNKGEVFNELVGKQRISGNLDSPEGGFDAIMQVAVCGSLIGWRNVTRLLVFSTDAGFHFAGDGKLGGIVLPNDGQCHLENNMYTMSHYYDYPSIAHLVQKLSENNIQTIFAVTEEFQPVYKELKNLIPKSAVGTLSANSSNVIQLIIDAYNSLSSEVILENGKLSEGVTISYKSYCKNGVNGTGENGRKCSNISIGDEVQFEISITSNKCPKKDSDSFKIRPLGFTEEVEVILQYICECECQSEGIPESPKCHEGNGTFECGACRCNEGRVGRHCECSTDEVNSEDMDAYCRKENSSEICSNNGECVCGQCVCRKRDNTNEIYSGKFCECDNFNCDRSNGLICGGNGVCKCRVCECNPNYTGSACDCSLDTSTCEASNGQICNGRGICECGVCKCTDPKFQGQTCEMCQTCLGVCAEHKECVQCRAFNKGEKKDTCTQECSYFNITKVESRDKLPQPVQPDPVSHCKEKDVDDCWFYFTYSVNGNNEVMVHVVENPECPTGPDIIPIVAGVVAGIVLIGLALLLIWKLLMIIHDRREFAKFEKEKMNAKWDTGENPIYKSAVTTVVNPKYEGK
# experiment: Cell adhesion assay with HEK293
# statedConditions: HEK293 cells, fibronectin-coated plates, 1 h at 37° C., 2 mM MgCl2
pIC50: −log10 of the molar value.
observedProperty: pIC50

compound	observedMeasurement
Cc1ccnc(NCC2CC(=O)N(c3ccc(CC(NC(=O)c4c(C)cc(C)cc4C)C(=O)O)cc3)C2)c1 (stereo not shown)	> 5.70
Cc1cc(C)c(C(=O)NC(Cc2ccc(N3CC(CNc4ccccn4)C3)cc2)C(=O)O)c(C)c1 (stereo not shown)	< 4.70
Cc1cc(C)c(C(=O)NC(Cc2ccc(N3CCC(CNc4nc5ccccc5[nH]4)CC3)cc2)C(=O)O)c(C)c1 (stereo not shown)	4.70 to 5.70
Cc1ccnc(NCC2CCN(c3ccc(CC(NC(=O)c4ccccc4)C(=O)O)cc3)CC2)c1 (stereo not shown)	4.70 to 5.70

----------
# targetUnderTest: alpha5beta1 (Homo sapiens (Human), UniProt P05556+P08648)
# experiment: Cell adhesion assay with HEK293
# statedConditions: HEK293 cells, fibronectin-coated plates, 1 h at 37° C., 2 mM MgCl2
pIC50: −log10 of the molar value.

compound	pIC50
Cc1cc(C)c(C(=O)NC(Cc2ccc(N3CCC(c4ccc5c(n4)NCCC5)CC3)cc2)C(=O)O)c(C)c1 (centres unmarked)	> 5.70
Cc1ccnc(NCC2CCN(c3ccc(CC(NC(=O)c4c(C)cc(C)cc4C)C(=O)O)cc3)CC2)c1 (centres unmarked)	> 5.70
CCCNC(=O)NCC1CCN(c2ccc(CC(NC(=O)c3c(C)cc(C)cc3C)C(=O)O)cc2)CC1 (centres unmarked)	< 4.70
Cc1ccnc(NCC2CCN(c3ccc(CC(NC(=O)C4(C)CCCCC4)C(=O)O)cc3)CC2)c1 (centres unmarked)	> 5.70
Cc1ccnc(NCC2CCN(c3ccc(CC(NC(=O)C(c4ccccc4)C(C)C)C(=O)O)cc3)CC2)c1 (centres unmarked)	> 5.70
CC1(C(=O)NC(CC2CCN(C(=O)CCc3ccc4c(n3)NCCC4)CC2)C(=O)O)CCCCC1 (centres unmarked)	4.70 to 5.70
CCc1cc(F)cc(C)c1C(=O)NC(Cc1ccc(N2CCC(CNc3ccccn3)CC2)cc1)C(=O)O (centres unmarked)	> 5.70
COc1ccnc(NCC2CCN(c3ccc(CC(NC(=O)c4c(C)cc(C)cc4C)C(=O)O)cc3)CC2)c1 (centres unmarked)	> 5.70

Data origin, for the record: patent US8927534B2
